# protocolNotes: chemical genetic growth profiling, strain panel (AID 1159580);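 further: tested at 20 µM; growth read once vehicle control cultures reached saturation at 30 °C; 1 = growth at the plate median or of vehicle wells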
# assayConditions: S. cerevisiae deletion strains, growth OD, locus YDR069C, strain doa4, stronger effect = lower value
The campaign covered roughly 5,500 compounds. About 2,000 (36%) were called active. About 18% were inconclusive and are not listed. Some of the results follow.
assayMetric: normalized growth
Numbers only.

See these solved cases before continuing.
Cc1cccc(N(C)C(=S)Oc2ccc3ccccc3c2)c1 : 0.985
CC(=O)O[C@H]1CC2CCC3C(CC[C@@]4(C)C3C[C@H]([N+]3(C)CCCCC3)[C@@H]4OC(C)=O)[C@@]2(C)C[C@@H]1[N+]1(C)CCCCC1 (stereo partly drawn) : 1.02
C[C@]12CCC3c4ccc(O)cc4CCC3C1CC[C@@H]2OC(=O)CCC1CCCC1 (stereo partly drawn) : 0.989

State recorded normalized growth for all listed molecules.
1. CCC(=O)O[C@H]1CCC2C3CCc4cc(O)ccc4C3CC[C@@]21C (stereo partly drawn)
2. COP(=S)(OC)SCn1nnc2ccccc2c1=O

Output:
1: 0.97; 2: 0.96

Below are 2 molecules. Give each one its normalized growth.
1. CCNc1nc(Cl)nc(NC(C)C)n1
2. O=C(O)c1cc2cc(Cl)ccc2[nH]1

Output:
1. 1.01
2. 0.983

According to the records, this molecule "CC1(C)S[C@@H]2[C@H](NC(=O)COc3ccccc3)C(=O)N2[C@H]1C(=O)O" displays normalized growth of 0.98

###

# protocolNotes: chemical genetic growth profiling, strain panel (AID 1159580);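 further: tested at 20 µM; growth read once vehicle control cultures reached saturation at 30 °C; 1 = growth at the plate median or of vehicle wells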
# assayConditions: S. cerevisiae deletion strains, growth OD, locus YDL134C, strain PPH21
Among all 5,500 compounds or so, about 2,000 (36%) were called active. Roughly 18% stayed inconclusive and do not appear here. Cut-off read from the data, not from the text of the source: active = normalized growth mostly below about 0.91 (no sharp cut-off); inconclusive = no clear call, values can overlap the other calls; inactive = mostly above about 0.92. The list shows a part of the results.
Hi! Could you answer with just one of these? active, inactive

Illustrative cases are given below, each with its answer.
CCOC(=O)CC1=Nn2c(nnc2-c2cc(Cl)cc(Cl)c2)SC1 : inactive
CCOC(=N)c1ccc(F)c(Cl)c1 : inactive

Task: Lab log entry: "COc1cc2c(cc1-c1coc3c4c(c(OC)cc3c1=O)OC(C)(C)C=C4)OCO2" — outcome as called in the assay?
Output: inactive

Task: Status in this test for "N#C/C(=N/Nc1ccc(C(F)(F)F)cc1)C(=O)C1CC1" ?
Output: active

Task: Tell me the recorded outcome of this test for CCOc1nc2cccc(C(=O)OC(C)OC(=O)OC3CCCCC3)c2n1Cc1ccc(-c2ccccc2-c2nn[nH]n2)cc1 (configuration not stated) .
Output: inactive

Task: Dear colleague, could you share the recorded outcome for "Cn1cnc([N+](=O)[O-])c1Sc1ncnc2nc[nH]c12" when you have a moment?
Output: inactive

Task: Status in this test for "CCCCC(=O)N(Cc1ccc(-c2ccccc2-c2nn[nH]n2)cc1)[C@H](C(=O)O)C(C)C" ?
Output: inactive

###

# protocolNotes: chemical genetic growth profiling, strain panel (AID 1159580);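 further: tested at 20 µM; growth read once vehicle control cultures reached saturation at 30 °C; 1 = growth at the plate median or of vehicle wells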
# assayConditions: S. cerevisiae deletion strains, growth OD, locus YGR040W, strain KSS1
Out of some 5,500 compounds screened, about 2,000 (36%) were called active. Inconclusive results (about 18%) are left out. No stated cut-off is given here; in the data, active means normalized growth mostly below about 0.91 (no sharp cut-off); inconclusive means no clear call, values can overlap the other calls; inactive means mostly above about 0.92. The list shows a part of the results.
Answer with one of the outcomes given here: T (active), F (inactive)

CC(=O)Oc1ccc2c(=O)c(Oc3ccc(Cl)cc3)c(C)oc2c1 : F
CN(C)c1nc(=S)ss1 : T
Oc1ccc(-n2nnnc2SCc2ccc(OC(F)(F)F)cc2)cc1 : F
CCOC(=O)C(NC(C)=O)(Nc1ccc(F)c(Cl)c1)C(F)(F)F (configuration not stated) : F
N#CC(C#N)=NNc1ccc(-n2ccc(C(F)(F)F)n2)cc1 : T

Task: Could you please tell me the result logged for "COC(=O)c1ccc(Oc2c(C(F)(F)F)oc3cc(O)ccc3c2=O)cc1" in this assay?
Output: F

Task: Assay result, entry "O=C(NCc1ccc(F)c(Cl)c1)Nc1csc([N+](=O)[O-])c1" — outcome?
Output: F

Task: For "Cc1nc(C(F)(F)F)ccc1C(=O)Sc1nnc(-c2ccc(C(F)(F)F)nc2C)o1" , which call appears in the assay record?
Output: F

Task: Could you check what this test reported for "CCCCc1ccc(N=CNO)c(C)c1" ?
Output: T

Task: Please indicate how the test categorized "CSc1sc(-c2ccn[nH]2)c(-c2ccccc2)c1C#N" .
Output: F
